Values were extracted from patent US20240342138A1.

assay: Biodistribution after oral administration
Format: in vivo, Sprague-Dawley Rats
experimental.parameters: male, Sprague-Dawley, rat; Liver; 8 hours; 75 mg/kg oral; read-out: Ratio (tissue to plasma)
reported.endpoint: Kp at 8 h

Recorded Kp at 8 h (compound `COc1ccccc1-c1nc(CNC(=O)c2ccccc2OC(F)F)n[nH]1` ): 3.06

* * *

assay: Biodistribution after oral administration
Type: in vivo, Sprague-Dawley Rats
experimental.parameters: male, Sprague-Dawley, rat; Kidney; 0.25 hours; 75 mg/kg oral; read-out: Ratio (tissue to plasma)
reported.endpoint: Kp at 0.25 h

Recorded Kp at 0.25 h (compound `COc1ccccc1-c1nc(CNC(=O)c2ccccc2OC(F)F)n[nH]1` ): 0.83

* * *

assay: Biodistribution after oral administration
Format: in vivo, Sprague-Dawley Rats
experimental.parameters: male, Sprague-Dawley, rat; Brain; 2 hours; 75 mg/kg oral; read-out: Mean plasma/tissue concentration
reported.endpoint: concentration at 2 h (ng/g)
Give your result in ng/g as a bare value.

Recorded concentration at 2 h (molecule `COc1ccccc1-c1nc(CNC(=O)c2ccccc2OC(F)F)n[nH]1` ): 494

* * *

assay: Biodistribution after oral administration
Type: in vivo, Sprague-Dawley Rats
experimental.parameters: male, Sprague-Dawley, rat; Stomach; 2 hours; 75 mg/kg oral; read-out: Ratio (tissue to plasma)
reported.endpoint: Kp at 2 h

Recorded Kp at 2 h (compound `COc1ccccc1-c1nc(CNC(=O)c2ccccc2OC(F)F)n[nH]1` ): 21

* * *

assay: Biodistribution after oral administration
Type: in vivo, Sprague-Dawley Rats
experimental.parameters: male, Sprague-Dawley, rat; Liver; 2 hours; 75 mg/kg oral; read-out: Ratio (tissue to plasma)
reported.endpoint: Kp at 2 h

Recorded Kp at 2 h (molecule COc1ccccc1-c1nc(CNC(=O)c2ccccc2OC(F)F)n[nH]1 [Compound 1] ): 4.63

* * *

assay: Biodistribution after oral administration
Assay type: in vivo, Sprague-Dawley Rats
experimental.parameters: male, Sprague-Dawley, rat; Small intestine; 0.25 hours; 75 mg/kg oral; read-out: Ratio (tissue to plasma)
reported.endpoint: Kp at 0.25 h
// no unit, no text: just the number

Recorded Kp at 0.25 h (compound `COc1ccccc1-c1nc(CNC(=O)c2ccccc2OC(F)F)n[nH]1` ): 5.9

* * *

This section presents compounds with their documented recovery at 4 h, 10 μM values.
assay: Blood brain barrier permeability (PVDF membrane coated with porcine brain polar lipid extract)
Format: in vitro ADME
experimental.parameters: pig, not told
Give your result in % as a bare value.

> print(dat)
                                   compound       reported.endpoint  measure.unit  measured.number
1  COc1ccccc1-c1nc(CNC(=O)c2ccccc2OC(F)F)n[nH]1 [Compound 1]  recovery at 4 h, 10 μM             %             85.8

Now for the compound whose recovery at 4 h, 10 μM we want.
Recorded recovery at 4 h, 10 μM (compound CC(C)NCC(O)COc1cccc2ccccc12 (stereo not drawn) [Propranolol, reference compound] ): 27.7

* * *

assay: Biodistribution after oral administration
Type: in vivo, Sprague-Dawley Rats
experimental.parameters: male, Sprague-Dawley, rat; Pancreas; 2 hours; 75 mg/kg oral; read-out: Ratio (tissue to plasma)
reported.endpoint: Kp at 2 h
// no unit, no text: just the number

Recorded Kp at 2 h (compound `COc1ccccc1-c1nc(CNC(=O)c2ccccc2OC(F)F)n[nH]1` ): 1.39

* * *

assay: Biodistribution after oral administration
Assay type: in vivo, Sprague-Dawley Rats
experimental.parameters: male, Sprague-Dawley, rat; Heart; 2 hours; 75 mg/kg oral; read-out: Ratio (tissue to plasma)
reported.endpoint: Kp at 2 h

Recorded Kp at 2 h (compound `COc1ccccc1-c1nc(CNC(=O)c2ccccc2OC(F)F)n[nH]1` ): 1.13

* * *

assay: Biodistribution after oral administration
Type: in vivo, Sprague-Dawley Rats
experimental.parameters: male, Sprague-Dawley, rat; Pancreas; 8 hours; 75 mg/kg oral; read-out: Mean plasma/tissue concentration
reported.endpoint: concentration at 8 h (ng/g)
Give your result in ng/g as a bare value.

Recorded concentration at 8 h (compound `COc1ccccc1-c1nc(CNC(=O)c2ccccc2OC(F)F)n[nH]1` ): 117

* * *

assay: Biodistribution after oral administration
Format: in vivo, Sprague-Dawley Rats
experimental.parameters: male, Sprague-Dawley, rat; Skeletal Muscle; 0.25 hours; 75 mg/kg oral; read-out: Ratio (tissue to plasma)
reported.endpoint: Kp at 0.25 h
// no unit, no text: just the number

Recorded Kp at 0.25 h (molecule `COc1ccccc1-c1nc(CNC(=O)c2ccccc2OC(F)F)n[nH]1` ): 0.21

* * *

assay: Biodistribution after oral administration
Format: in vivo, Sprague-Dawley Rats
experimental.parameters: male, Sprague-Dawley, rat; Skeletal Muscle; 0.25 hours; 75 mg/kg oral; read-out: Mean plasma/tissue concentration
reported.endpoint: concentration at 0.25 h (ng/g)
Give your result in ng/g as a bare value.

Recorded concentration at 0.25 h (compound COc1ccccc1-c1nc(CNC(=O)c2ccccc2OC(F)F)n[nH]1 [Compound 1] ): 607

* * *

This section presents compounds with their documented Papp at 4 h, 10 μM values.
assay: Blood brain barrier permeability (PVDF membrane coated with porcine brain polar lipid extract)
Type: in vitro ADME
experimental.parameters: PAMPA, read-out: Mean Pe
Give your result in ×10⁻⁶ cm/s as a bare value.

> print(dat)
                                   compound   reported.endpoint  measured.number
1  COc1ccccc1-c1nc(CNC(=O)c2ccccc2OC(F)F)n[nH]1  Papp at 4 h, 10 μM             6.76

Now for the compound whose Papp at 4 h, 10 μM we want.
Recorded Papp at 4 h, 10 μM (compound CC(C)NCC(O)COc1cccc2ccccc12 (centres unmarked) [Propranolol, reference compound] ): 4.74

* * *

assay: Biodistribution after oral administration
Assay type: in vivo, Sprague-Dawley Rats
experimental.parameters: male, Sprague-Dawley, rat; Heart; 8 hours; 75 mg/kg oral; read-out: Mean plasma/tissue concentration
reported.endpoint: concentration at 8 h (ng/g)
Give your result in ng/g as a bare value.

Recorded concentration at 8 h (compound `COc1ccccc1-c1nc(CNC(=O)c2ccccc2OC(F)F)n[nH]1` ): 64.8

* * *

assay: Biodistribution after oral administration
Format: in vivo, Sprague-Dawley Rats
experimental.parameters: male, Sprague-Dawley, rat; Pancreas; 0.25 hours; 75 mg/kg oral; read-out: Mean plasma/tissue concentration
reported.endpoint: concentration at 0.25 h (ng/g)
Give your result in ng/g as a bare value.

Recorded concentration at 0.25 h (compound COc1ccccc1-c1nc(CNC(=O)c2ccccc2OC(F)F)n[nH]1 [Compound 1] ): 2700

* * *

assay: Biodistribution after oral administration
Format: in vivo, Sprague-Dawley Rats
experimental.parameters: male, Sprague-Dawley, rat; Liver; 8 hours; 75 mg/kg oral; read-out: Mean plasma/tissue concentration
reported.endpoint: concentration at 8 h
Show the value, then the unit it is measured in.

Recorded concentration at 8 h (molecule COc1ccccc1-c1nc(CNC(=O)c2ccccc2OC(F)F)n[nH]1 [Compound 1] ): 255 ng/g

* * *

assay: Biodistribution after oral administration
Format: in vivo, Sprague-Dawley Rats
experimental.parameters: male, Sprague-Dawley, rat; Stomach; 0.25 hours; 75 mg/kg oral; read-out: Mean plasma/tissue concentration
reported.endpoint: concentration at 0.25 h (ng/g)
Give your result in ng/g as a bare value.

Recorded concentration at 0.25 h (compound `COc1ccccc1-c1nc(CNC(=O)c2ccccc2OC(F)F)n[nH]1` ): 33700
